# experiment-notes: Plasma pharmacokinetics of CX-5461 (HPLC-MS/MS, non-compartmental)
# Format: in vivo, human
# experimental-setup: human, plasma, intravenous, 325 mg/m2, 325 mg/m2; Time 6; individual patients; read-out: Day 1 CX-5461 plasma concentration
# Procedure: PK was assessed on all patients in the escalation phase. Venous blood samples were collected on treatment days 1, 8, and 15 (where applicable), and plasma CX-5461 was analyzed with HPLC-MS/MS (schedule details in Supplementary Table 3). PK parameters were calculated with non-compartmental methods. […] The protocol was amended to allow submission of a ctDNA sample and in a further amendment, a mandatory skin biopsy (pre-treatment and cycle 1 day 15) to study phototoxic effects. […]
readout-label: concentration at 6 h
The number alone won't do; follow it with the unit.

Please fill in: concentration at 6 h reported for Cc1cnc(CNC(=O)c2c(=O)c3ccc(N4CCCN(C)CC4)nc3n3c2sc2ccccc23)cn1 [CX-5461] = 291 ng/mL
